Test Details: Compound solubility in water
Format: physicochemical
Condition Description: in water
Quantity Measured: solubility (µg/mL)
Numbers only here, please. The scale is µg/mL.

Use the examples below as a reference point.
INSERT INTO results (compound, assay_result) VALUES
  ('Cc1cc(-c2cnsc2)nc2c(C(=O)NC(C)(C)C)ncn12', 8.2),
  ('Cc1cc(-c2sccc2C#N)nc2c(C(=O)NC(C3CC3)C(F)(F)F)ncn12 (stereo not drawn)', 2.4),
  ('COc1cc(F)cc(-c2cc(C)n3cnc(C(=O)N[C@@H](C)C(F)(F)F)c3n2)c1', 2.2),
  ('Cc1cc(-n2ccc(Cl)n2)nc2c(C(=O)NC(C)C(F)(F)F)ncn12 (stereo not drawn)', 4.2),
  ('Cc1cc(-c2cc(C#N)cs2)nc2c(C(=O)NC(C3CC3)C(F)(F)F)ncn12 (stereo not drawn)', 5.9),
  ('Cc1cc(-c2ccc3nncn3c2)nc2c(C(=O)NC(C3CC3)C(F)(F)F)ncn12 (stereo not drawn)', 17.5),
  ('C#CC(C)(C)NC(=O)c1ncn2c(C)cc(-c3ccc4c(c3)OCO4)nc12', 0.5),
  ('Cc1cc(-c2cccc3ncsc23)nc2c(C(=O)NC(C3CC3)C(F)(F)F)ncn12 (stereo not drawn)', 0.4),
  ('COc1cc(F)cc(-c2cc(C)n3cnc(C(=O)N[C@H](C)C(F)(F)F)c3n2)c1', 2.3),
  ('Cc1cc(-c2ccc(F)cc2)nc2c(C(=O)NC(C3CC3)C(F)(F)F)ncn12 (stereo not drawn)', 0.8);

Need solubility, item "Cc1cc(-c2cc(F)cc(C#N)c2)nc2c(C(=O)NC(C)(C)C)ncn12"
0.9

// returns reported solubility for input CCc1cc(N2CCC(C)(C)C2=O)nc2c(C(=O)NC(C3CC3)C(F)(F)F)ncn12 (stereo not drawn)
29.6

src = patent US9920061B2
